target: AMP-activated protein kinase, AMPK (Homo sapiens) (UniProt P54646+O43741+P54619+Q9UGJ0+Q9Y478+Q13131+Q9UGI9); assay: AMP-dependent Kinase enzyme assay. An in vitro enzyme assay that detects ADP turnover that is directly proportional to AMPK activity. This uses naive AMPK that is activated during the assay with MK-8722; format: functional; parameters: scale not given: direction of the effect not stated beside the values; details: 30 µM
test-readout: Percent Effect (%)
Numbers only, in %.

| molecule | Percent Effect [%] |
| --- | --- |
| CN(CC(=O)N1CCCC1Cn1cccn1)C1CC1 (configuration not stated) | -1.88 |

Provide Percent Effect values for the following items, in order.
1. Cc1ccc(-n2nnc(CC(=O)N3CCSCC3)c2C)cc1
2. COc1c(CNCCNC(=O)Cc2ccc(F)cc2)c(C)nn1C
3. Cc1ccc(-n2nnc(C(=O)Nc3cc(C)nn3C)c2C2CC2)cc1

[out]
[-1.3, 1.18, 1.63]

* * *

What Percent Effect was measured for each of the following?
system: Trypanosoma cruzi; assay: Trypanosoma cruzi phosphomannomutase and mannose-1-phosphate guanylyltransferase assay; format: functional; set-up: scale not given: direction of the effect not stated beside the values; conditions: 10 µM
Give bare numbers, in %.

Check out these entries, answers already filled in.
| molecule | Percent Effect (%) |
| --- | --- |
| CN(Cc1ccc(N2CCCCC2)cc1)Cc1noc(C(C)(C)C)n1 | 0.492 |
| CC(C(=O)NCc1ccc(-n2cncn2)nc1)n1ccnc1 (stereo unspecified) | 2.25 |
| CN(C)C(=O)C1CN(Cc2c[nH]cn2)CCN(C2CCOCC2)C1 (stereo unspecified) | 0.198 |
| CN1CCCCC1c1ncc2c(n1)CCN(Cc1ccccc1Cl)C2 (stereo unspecified) | 3.74 |

Provide Percent Effect values for the following items, in order.
1. CC(C)CCNC(=O)c1sccc1N(C)S(=O)(=O)c1ccccc1
2. Cc1csc(CNC(=O)NCCc2ccc3c(c2)OCCO3)n1

[out]
1. -0.0974
2. 7.93

* * *

organism: Homo sapiens; test: To identify inhibition of the IFN signalling (Jak-Stat) pathway via expression of an eGFP reporter gene under the control of an IFN-stimulated response element (ISRE) containing MxA promoter.; type: functional; design: scale not given: direction of the effect not stated beside the values; conditions: 30 µM
Could you please mark rule met for values of Percent Effect below 10% and rule not met for values at or above it?

| molecule | assigned-label |
| --- | --- |
| COc1ccc(NC(C)C(=O)NCCc2cccs2)cc1F (stereo unspecified) | rule not met |

[in] API: query returns whether the molecule falls strictly under 10% in Percent Effect. Query: CCN(CC1CN(CCc2ccccn2)CCO1)c1cccnn1 (stereo unspecified)
[out] rule met

[in] API: query returns whether the molecule falls strictly under 10% in Percent Effect. Query: Cc1cnn(CC2CN(CCc3ccncc3)CCO2)c1 (stereo unspecified)
[out] rule met

[in] API: query returns whether the molecule falls strictly under 10% in Percent Effect. Query: CC[C@@]1(O)CCN(C(=O)c2ccc(SC)cc2)C[C@H]1O
[out] rule met

[in] API: query returns whether the molecule falls strictly under 10% in Percent Effect. Query: CCS(=O)(=O)c1ccccc1N1CCC(NC(=O)c2ccc[nH]2)CC1
[out] rule not met

[in] API: query returns whether the molecule falls strictly under 10% in Percent Effect. Query: CNC(=O)[C@H]1CO[C@H]2CCN(Cc3ccc4ccccc4n3)C[C@H]2C1
[out] rule met

[in] API: query returns whether the molecule falls strictly under 10% in Percent Effect. Query: COc1ccc(NC(=O)C(c2cccc(F)c2)N2CCOCC2)cc1 (stereo unspecified)
[out] rule met

[in] API: query returns whether the molecule falls strictly under 10% in Percent Effect. Query: Cc1ccn(-c2ccc(C(=O)N3CCCC(C(N)=O)C3)cc2)n1 (stereo unspecified)
[out] rule not met

[in] API: query returns whether the molecule falls strictly under 10% in Percent Effect. Query: O=C(c1cn(-c2cc(N3CCOCC3)ncn2)cn1)N1CCSCC1
[out] rule met

[in] API: query returns whether the molecule falls strictly under 10% in Percent Effect. Query: O=C(NCc1cccs1)[C@H]1CC[C@@H]2[C@@H](CCN2c2ncccn2)O1
[out] rule not met

[in] API: query returns whether the molecule falls strictly under 10% in Percent Effect. Query: Cc1cc(C)nc(CCNC(=O)C(c2ccc(F)cc2)N(C)C)n1 (stereo unspecified)
[out] rule not met

* * *

target: AMP-activated protein kinase, AMPK (Homo sapiens) (UniProt P54646+O43741+P54619+Q9UGJ0+Q9Y478+Q13131+Q9UGI9); assay: AMP-dependent Kinase enzyme assay. An in vitro enzyme assay that detects ADP turnover that is directly proportional to AMPK activity. This uses naive AMPK that is activated during the assay with MK-8722; type: functional; design: scale not given: direction of the effect not stated beside the values; settings: 30 µM
test-readout: Percent Effect (%)
Answers are plain numbers, in %.

| compound | Percent Effect, % |
| --- | --- |
| Cn1c(C2CC2)nc2c1CCN(CCOc1ccc(C#N)cc1)C2 | 4.37 |

Provide Percent Effect values for the following items, in order.
1. CN(C)C(=O)N1CCc2c(nnn2C)C1COCc1ccccc1 (stereo unspecified)
2. CCn1ncnc1C(C)NC(=O)C1CCN(C(=O)COC)CC1 (stereo unspecified)
3. O=C1N(c2ccccc2)Cc2nc(=O)[nH]n21
4. CC(NC(N)=O)C(=O)N1CCCN(Cc2nccn2C(C)C)CC1 (stereo unspecified)
5. CCCC(NC(=O)c1ccc(OC)cc1F)c1nnn[nH]1 (stereo unspecified)

[out]
[-8.1, -1.09, -6.52, 7.49, -8.28]

* * *

What Percent Effect was measured for each of the following?
target: AMP-activated protein kinase, AMPK (Homo sapiens) (UniProt P54646+O43741+P54619+Q9UGJ0+Q9Y478+Q13131+Q9UGI9); test: AMP-dependent Kinase enzyme assay. An in vitro enzyme assay that detects ADP turnover that is directly proportional to AMPK activity. This uses naive AMPK that is activated during the assay with MK-8722; format: functional; design: scale not given: direction of the effect not stated beside the values; conditions: 30 µM

Check out these entries, answers already filled in.
| compound | Percent Effect |
| --- | --- |
| Cc1ccc(S(=O)(=O)N2C[C@H]3C[C@H](NC(=O)c4ccn(C)n4)[C@H]3C2)cc1 | -0.91% |
| Cc1ccccc1C(=O)CN1C(=O)c2ccccc2CS1(=O)=O | 2.31% |
| Cc1oc(C(=O)O)cc1S(=O)(=O)Nc1c(F)cccc1-n1cccn1 | -0.737% |
| CCS(=O)(=O)N1CCO[C@H]2[C@H](OCC3CCCC3)CC[C@@H]21 | 0.773% |
| COC(=O)c1cccn1C1CCN(C(=O)c2cn[nH]c2C)CC1 | 0.41% |

Provide Percent Effect values for the following items, in order.
1. CC(C)CC1SCC(=O)Nc2c1cnn2-c1ccc(F)cc1 (stereo unspecified)
2. COc1cc(C(=O)NS(=O)(=O)c2cccc(C#N)c2)ccc1C

[out]
1.34%
-1.79%

Provide Percent Effect values for the following items, in order.
1. CNc1cc2c(nn1)CCN(C(=O)c1cccc3c1OCO3)C2
2. COCc1ccccc1C(=O)N1CCCC(n2nc(C)cc2C)C1 (stereo unspecified)
3. CCOc1ncccc1NC(=O)c1sccc1C
4. Cc1noc(C)c1-c1cccc(CC2CCN(C(=O)c3cc[nH]n3)C2)n1 (stereo unspecified)

[out]
["-9.97%", "-3.09%", "2.84%", "9.02%"]

* * *

Molecular target: Ubiquitin-activating enzyme e1, putative (Leishmania donovani (strain BPK282A1)) (UniProt E9BSI1)
Sequence (whole entry): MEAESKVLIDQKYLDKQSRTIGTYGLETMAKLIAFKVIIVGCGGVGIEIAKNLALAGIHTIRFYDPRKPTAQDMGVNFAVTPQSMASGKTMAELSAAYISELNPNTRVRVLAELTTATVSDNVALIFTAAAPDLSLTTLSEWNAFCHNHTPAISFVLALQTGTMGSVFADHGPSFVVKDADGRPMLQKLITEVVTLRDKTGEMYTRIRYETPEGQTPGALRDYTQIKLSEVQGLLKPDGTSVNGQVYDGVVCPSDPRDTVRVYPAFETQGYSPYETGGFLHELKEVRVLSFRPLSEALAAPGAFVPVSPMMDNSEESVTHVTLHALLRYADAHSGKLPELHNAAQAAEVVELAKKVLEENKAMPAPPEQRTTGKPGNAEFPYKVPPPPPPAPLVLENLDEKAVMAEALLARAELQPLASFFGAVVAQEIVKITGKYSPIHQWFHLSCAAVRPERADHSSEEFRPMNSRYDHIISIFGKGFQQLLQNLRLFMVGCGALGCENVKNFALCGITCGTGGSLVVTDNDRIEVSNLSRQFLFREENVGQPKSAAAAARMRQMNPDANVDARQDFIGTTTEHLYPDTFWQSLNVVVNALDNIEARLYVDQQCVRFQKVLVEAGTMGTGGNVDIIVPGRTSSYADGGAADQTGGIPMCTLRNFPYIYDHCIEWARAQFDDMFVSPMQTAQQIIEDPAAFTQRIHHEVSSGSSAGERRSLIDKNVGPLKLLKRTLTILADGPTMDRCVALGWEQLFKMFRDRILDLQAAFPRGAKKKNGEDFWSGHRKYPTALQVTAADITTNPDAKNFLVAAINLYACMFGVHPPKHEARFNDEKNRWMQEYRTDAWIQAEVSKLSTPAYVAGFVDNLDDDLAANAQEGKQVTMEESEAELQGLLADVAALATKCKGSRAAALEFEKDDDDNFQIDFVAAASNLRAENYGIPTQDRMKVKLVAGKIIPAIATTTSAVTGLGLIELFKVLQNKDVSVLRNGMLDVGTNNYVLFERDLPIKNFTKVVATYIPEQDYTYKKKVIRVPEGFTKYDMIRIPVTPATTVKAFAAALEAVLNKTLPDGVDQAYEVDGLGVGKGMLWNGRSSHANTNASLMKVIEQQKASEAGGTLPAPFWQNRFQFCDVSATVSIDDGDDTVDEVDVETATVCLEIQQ
Assay: Leishmania donovani Ubiquitin Activating Enzyme (LdE1)
Assay type: functional
Set-up: scale not given: direction of the effect not stated beside the values
Conditions: 30 µM
Results with a measured potency or affinity are listed apart.
test-readout: Percent Effect (%)
Give bare numbers, in %.

| compound | quantitative-result |
| --- | --- |
| CN(C)c1ccc(CCNC(=O)NCc2ccc(N(C)C)nc2)cc1 | 13.5 |
| COCC(NC(=O)c1cnn(C)c1)c1cccc(C(F)(F)F)c1 (stereo unspecified) | 0 |
| Cn1ccnc1CNC1CCCN(Cc2noc(C3CC3)n2)C1 (stereo unspecified) | 0 |
| COc1ccc(C(=O)N2Cc3c(Cn4ccnc4)nn(C)c3C2)cc1 | 8 |
| O=S1(=O)C[C@@H]2[C@H](C1)N(Cc1cc(Cl)cc(Cl)c1)CCN2CC1CC1 | 8 |
| Cc1nn(C)c(Cl)c1C1CCCN1c1ncnc2sccc12 (stereo unspecified) | -2.67 |
| COc1cc(C)nc(N2CCN(Cc3nccn3C)CC2)n1 | 9.72 |
| O=C(CCc1cscn1)N1CCCC(c2ccn[nH]2)C1 (stereo unspecified) | -5.2 |

Provide Percent Effect values for the following items, in order.
1. COc1ccccc1CN1CCC2(CC1)CC(Oc1ccccn1)CO2 (stereo unspecified)
2. Cc1cc(C)n(C2CCCN(C(=O)C3=NN(C)C(=O)CC3)C2)n1 (stereo unspecified)
3. CC(C)c1nc2n(n1)CC(NCc1nnc(C(C)C)o1)CC2 (stereo unspecified)

[out]
1. 16
2. 18.9
3. 13.5
